# Test system: HCT-15 colon
# Experiment notes: NCI tumour cell line growth inhibition, 48 h
Documented TGI across a set of compounds

Some compounds with recorded TGI:
- Compound: "OC(CNc1ccnc2cc(Cl)ccc12)CNC1CCCCC1 (stereo unspecified)"
  Experimental endpoint: "TGI"
  Observed: "17 µM"
- Compound: "COC(=O)CC1(O)C(/C=C/c2ccccc2)C(C(=O)OC)C(=O)C(C(=O)OC)C1C(=O)OC (stereo unspecified)"
  Experimental endpoint: "TGI"
  Observed: "> 100 µM"
- Compound: "COC(=O)CCC(C)C1CCC2C3CCC4CC5CCC4(C)C3(O5)C(Br)C(Br)C12C (stereo unspecified)"
  Experimental endpoint: "TGI"
  Observed: "> 100 µM"
- Compound: "CC1CC(C)(O)CC(C(O)CC2CC(=O)NC(=O)C2)C1=O (stereo unspecified)"
  Experimental endpoint: "TGI"
  Observed: "2.94 µM"

get_value(item= N#CC(NNC(=O)c1ccccc1O)c1ccccc1 (stereo unspecified) , readout=TGI) returns > 100 µM

get_value(item= O=C(NCC(C(=O)OCc1ccccc1)C(=O)OCc1ccccc1)OCc1ccccc1 , readout=TGI) returns > 100 µM

get_value(item= COC(=O)C1(C)CCCC2(C)C3CCC4CC3(C=C4CO)CCC12 (stereo unspecified) , readout=TGI) returns 34.9 µM

get_value(item= CSC1C(=O)c2ccccc2/C(=N/Nc2nc3ccccc3s2)C1C (stereo unspecified) , readout=TGI) returns 15.8 µM

get_value(item= N#C/C(=C\c1ccc(Br)cc1)c1nc(-c2cc3ccccc3oc2=O)cs1 , readout=TGI) returns > 50 µM

get_value(item= CC1/C(=N/Nc2ccc([N+](=O)[O-])cc2)CC2C3(C)CCC2(C(C)C(=O)O)C(=O)C13 (stereo unspecified) , readout=TGI) returns > 100 µM

get_value(item= CCOC(=O)C1=NN(c2ccccc2)C2=CC(C)=NN(C)C(=S)N21 , readout=TGI) returns > 100 µM
